target: T1, B Lymphocyte Stimulator, soluble form (human) (human, UniProt Q9Y275 134-285, biotinylated with NHS-biotin where used as biotinylated B Lymphocyte Stimulator); assay: phage competition ELISA
T1 construct: Coated on plastic, captured on streptavidin plates, amine-coupled to a CM5 chip or free in solution, depending on the assay; also called BLyS; immobilized B Lymphocyte Stimulator
Experimental endpoint: binding result

I016E05 (scFv) scFv: QVQLQQSGAEVKKPGASVKVSCKASGYTFTKYTMHWVRQAPGQGPEWMGWINGGSGDTKYSRKFQGRVTITKDTSASAAYMELSSLGSEDTALYYCARATYDPLTGYSFDGFDIWGKGTMVTVSSGGGGSGGGGSGGGGSQSALTQPASVSGSPGQSITISCTGTSSDVGGYNYVSWYQQHPGKAPKLMIYEGSKRPSGVSNRFSGSKSGNTASLTISGLQAEDEADYYCSSYTTRSTRVFGGGTKLTVLG; binds
I029F11 (scFv) scFv: QVQLVQSRAEVKRPGASVKVSCKASGYRFGSYGITWVRQAPGQGLEWMGWISTRYGDTKSAQKVEGRVTLTTDTSTSTAYMELRSLRSDDTAVYYCARDGSYDILTGYYIDNYMDVWGRGTLVTVSSGGGGSGGGGSGGGGSQSVLTQPPSASGTPGQRVTISCSGSSSNIGSNTVNWYQRLPGAAPQLLIYNNDQRPSGIPDRFSGSKSGTSGSLVISGLQSEDEADYYCASWDDSLNGRVFGGGTKLTVLG; binds
I037E07 (scFv) scFv: QVQLVQSGAEVKKPGASVKVSCKASGYTFTNYGITWVRQAPGQGLEWMGWISAYNGNRNYAQKLQGRVTMTTDTSTSTAYMELRSLRSDDTAVYYCVRDGIDILLVPAALMDVWGRGTMVTVSSGGGGSGGGGSGGGGSQSVLTQPASVSGSPGQSITISCTGTSSDVGGYNYVSWYQQHPGKAPKLMIYEGSKRPSGVSNRFSGSKSGNTASLTISGLQAEDEADYYCSSYTTRSTRVFGGGTKLTVLG; binds
